# Test method notes: Plasma clearance in rat at 1 mg/kg, iv and 2 mg/kg, po
# Type: ADME, organism-based
Metric name: clearance (mL/min/kg)

Some entries whose results are on file:
[
  {
    "Compound": "Cl.N[C@@H](CC(=O)N1CCn2c(nnc2C(F)(F)F)C1)Cc1cc(F)c(F)cc1F",
    "Metric name": "clearance",
    "Recorded value": 60
  },
  {
    "Compound": "Cl.N[C@@H](CC(=O)N1CCn2c(nnc2C(F)(F)F)C1Cc1ccccc1F)Cc1cc(F)c(F)cc1F (stereo in doubt; 45b)",
    "Metric name": "clearance",
    "Recorded value": 74
  },
  {
    "Compound": "Cl.N[C@@H](CC(=O)N1CCn2c(nnc2C(F)(F)F)C1Cc1ccccn1)Cc1cc(F)c(F)cc1F (stereo in doubt; 49b)",
    "Metric name": "clearance",
    "Recorded value": 94
  },
  {
    "Compound": "Cl.N[C@@H](CC(=O)N1CCn2c(nnc2C(F)(F)F)C1C(O)c1ccc(F)cc1)Cc1cc(F)c(F)cc1F (stereo in doubt; 47b)",
    "Metric name": "clearance",
    "Recorded value": 63
  },
  {
    "Compound": "C[C@@H]1c2nnc(C(F)(F)F)n2[C@H](C)CN1C(=O)C[C@H](N)Cc1cc(F)c(F)cc1F.Cl",
    "Metric name": "clearance",
    "Recorded value": 85
  }
]

[I] Cl.N[C@@H](CC(=O)N1CCn2c(nnc2C(F)(F)F)C1Cc1cc(C(F)(F)F)cc(C(F)(F)F)c1)Cc1cc(F)c(F)cc1F (stereo in doubt; 48b)
[II] CN(C)C(=O)CC1c2nnc(C(F)(F)F)n2CCN1C(=O)C[C@H](N)Cc1cc(F)c(F)cc1F.Cl (stereo in doubt; 41b)
[III] C[C@@H]1CN(C(=O)C[C@H](N)Cc2cc(F)c(F)cc2F)Cc2ccc(C(F)(F)F)n21.Cl
[IV] Cl.N[C@@H](CC(=O)N1CCn2c(nnc2C(F)(F)F)[C@H]1Cc1ccc(F)cc1)Cc1cc(F)c(F)cc1F (mixture of isomers)
Your job: order these 4 records by clearance, ascending. In plain terms: list the labels in the order you were asked to.
IV, I, II, III
